- systemName: EGFR InsH transformed Ba/F3 cells (Homo sapiens, UniProt P00533, DUP773-773)
- Sequence (P00533 with tags, fused parts or gaps DUP773-773): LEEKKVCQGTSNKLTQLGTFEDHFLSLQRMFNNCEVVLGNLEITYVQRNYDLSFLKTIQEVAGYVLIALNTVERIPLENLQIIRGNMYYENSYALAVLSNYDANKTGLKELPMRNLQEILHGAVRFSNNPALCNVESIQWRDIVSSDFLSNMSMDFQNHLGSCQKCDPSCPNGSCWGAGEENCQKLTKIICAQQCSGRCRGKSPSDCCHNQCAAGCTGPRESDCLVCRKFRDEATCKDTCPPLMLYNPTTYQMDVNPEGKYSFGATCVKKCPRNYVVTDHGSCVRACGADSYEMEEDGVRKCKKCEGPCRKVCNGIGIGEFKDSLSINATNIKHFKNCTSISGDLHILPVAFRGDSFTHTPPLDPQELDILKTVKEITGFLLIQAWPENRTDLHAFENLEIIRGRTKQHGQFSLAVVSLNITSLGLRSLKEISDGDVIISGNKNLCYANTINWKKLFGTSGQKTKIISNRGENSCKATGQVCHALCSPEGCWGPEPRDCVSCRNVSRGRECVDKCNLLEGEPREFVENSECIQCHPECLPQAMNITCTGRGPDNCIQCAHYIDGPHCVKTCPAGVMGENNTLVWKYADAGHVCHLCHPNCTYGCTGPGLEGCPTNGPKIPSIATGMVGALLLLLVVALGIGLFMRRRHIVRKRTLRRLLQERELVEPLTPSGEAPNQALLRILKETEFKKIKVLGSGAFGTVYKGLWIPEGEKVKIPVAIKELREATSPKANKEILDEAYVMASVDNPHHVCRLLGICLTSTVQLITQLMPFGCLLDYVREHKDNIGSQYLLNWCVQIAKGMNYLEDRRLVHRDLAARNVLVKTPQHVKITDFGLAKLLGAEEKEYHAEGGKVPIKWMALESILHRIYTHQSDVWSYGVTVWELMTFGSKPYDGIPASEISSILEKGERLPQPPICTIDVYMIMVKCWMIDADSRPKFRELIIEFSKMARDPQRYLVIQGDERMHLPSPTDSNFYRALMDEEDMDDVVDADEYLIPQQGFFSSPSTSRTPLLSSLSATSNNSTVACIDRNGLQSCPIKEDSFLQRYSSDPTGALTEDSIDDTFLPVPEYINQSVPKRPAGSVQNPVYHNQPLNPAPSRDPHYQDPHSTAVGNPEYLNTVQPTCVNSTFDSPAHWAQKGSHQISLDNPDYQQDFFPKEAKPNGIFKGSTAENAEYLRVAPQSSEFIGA
- assayNotes: Proliferation inhibition assay, EGFR InsH transformed Ba/F3 cells
- experimentalParameters: MTS assay, 72 hours
- Description: Cell growth inhibition can be assessed by MTS assay or by Cell Titer Glo Luminescent Cell viability assay (Promega®). […] The viability of the cells are then assessed. […] Cell growth inhibition was assessed by MTS assay for Ba/F3, DFCI58-229, and DFCI127c cells, or by Cell Titer Glo Luminescent Cell viability assay (Promega®) for DFC1362JC cells, 3000 Ba/F3 cells were seeded for per well in 96-well plates, and were exposed to representative compounds of the application (3.3 nM to 10 μM) for 72 hours. […]
Please provide measured EC50 for the entries that follow.

Item: C=CC(=O)Nc1cccc(-n2c(=O)c(Oc3ccc(F)cc3F)cc3cnc(Nc4ccc(N5CCN(C)CC5)cc4OC)nc32)c1 [Compound 6] | EC50: < 200 nM

Item: C=CC(=O)Nc1cc(Nc2ncc3cc(Oc4ccccc4)c(=O)n(C)c3n2)c(OC)cc1N(C)CCN(C)C [Compound 132] | EC50: < 200 nM

Item: C=CC(=O)Nc1cc(Nc2ncc3cc(Oc4cc(F)c(F)cc4F)c(=O)n(C)c3n2)c(OC)cc1N(C)CCN(C)C [Compound 135] | EC50: 200 to 600 nM

Item: C=CC(=O)NC1CCCC(n2c(=O)c(Oc3ccc(F)cc3F)cc3cnc(Nc4cnn(C)c4)nc32)C1 (centres unmarked) [Compound 23] | EC50: 200 to 600 nM

Item: C=CC(=O)Nc1cc(Nc2ncc3cc(Oc4c(F)cc(F)cc4F)c(=O)n(C)c3n2)c(OC)cc1N(C)CCN(C)C [Compound 136] | EC50: 200 to 600 nM
